Each entry below lists one item and its recorded koff value.
# ASSAYED_SYSTEM: T1, recombinant human ASM protein (human, UniProt P17405 47-630)
# T1 construct: Recombinant human ASM in solution; also called acid sphingomyelinase (ASM) protein
# T1 sequence: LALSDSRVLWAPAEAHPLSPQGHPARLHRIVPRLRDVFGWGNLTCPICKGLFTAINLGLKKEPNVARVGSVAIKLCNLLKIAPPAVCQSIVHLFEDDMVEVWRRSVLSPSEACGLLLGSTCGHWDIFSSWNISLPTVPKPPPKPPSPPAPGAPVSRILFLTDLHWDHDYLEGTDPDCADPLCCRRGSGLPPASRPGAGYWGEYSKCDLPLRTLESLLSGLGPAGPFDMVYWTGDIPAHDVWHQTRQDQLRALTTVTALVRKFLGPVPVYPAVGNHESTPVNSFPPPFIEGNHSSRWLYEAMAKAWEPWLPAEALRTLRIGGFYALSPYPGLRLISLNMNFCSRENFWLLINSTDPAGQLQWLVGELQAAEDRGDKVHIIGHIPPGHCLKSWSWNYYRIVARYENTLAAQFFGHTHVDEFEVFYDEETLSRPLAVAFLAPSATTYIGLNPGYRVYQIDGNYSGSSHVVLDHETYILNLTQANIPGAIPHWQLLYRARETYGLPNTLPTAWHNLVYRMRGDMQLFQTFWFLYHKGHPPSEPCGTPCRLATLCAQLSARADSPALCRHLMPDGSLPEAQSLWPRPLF
# MEASUREMENT_NOTES: BLI (Octet), antibody on AHC sensor
Just the number in s⁻¹, nothing appended.

In the examples that follow, each entry is paired with its recorded koff.
>>> measured_value("#9104a-C1 (antibody, human IgG4 S228P, lambda, V domains shown, VH of #9104v-H10 with VL of #9104v-L23; full-length IgG, lambda) VH: EVQLLESGGGLVQPGGSLRLSCAASGFTFSNYYMSWVRQAPGKGLEWVSGIYYGNGIPYYADSVKDRFTISRDNSKNTLYLQMNSLRAEDTAVYYCARDTPGFDYWGQGTLVTVSS VL: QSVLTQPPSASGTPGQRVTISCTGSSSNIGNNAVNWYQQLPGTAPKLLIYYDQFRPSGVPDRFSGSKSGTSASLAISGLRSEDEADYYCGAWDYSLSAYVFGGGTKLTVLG")
"3.76e-05"
>>> measured_value("#9104a-C7 (antibody, human IgG4 S228P, lambda, V domains shown, VH of #9104v-H31 with VL of #9104v-L23; full-length IgG, lambda) VH: EVQLLESGGGLVQPGGSLRLSCAASGFTFSNYYMSWVRQAPGKGLEWVSGVYYGSGTPYYADSVKGRFTISRDNSKNTLYLQMNSLRAEDTAVYYCARDTPGFDYWGQGTLVTVSS VL: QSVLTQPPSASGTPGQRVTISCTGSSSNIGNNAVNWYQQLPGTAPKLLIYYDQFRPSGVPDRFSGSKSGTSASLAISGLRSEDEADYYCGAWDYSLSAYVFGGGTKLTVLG")
"4.56e-05"
>>> measured_value("#9104a-E8 (antibody, human IgG4 S228P, lambda, V domains shown, VH of #9104v-H33 with VL of #9104v-L65; full-length IgG, lambda) VH: EVQLLESGGGLVQPGGSLRLSCAASGFTFSNYYMSWVRQAPGKGLEWVSGVYYPSGNPYYADSVKGRFTISRDNSKNTLYLQMNSLRAEDTAVYYCARDTPGFDYWGQGTLVTVSS VL: QSVLTQPPSASGTPGQRVTISCTGSSSNIGNNAVNWYQQLPGTAPKLLIYYDYYQSSGVPDRFSGSKSGTSASLAISGLRSEDEADYYCGAWDYSLSAYVFGGGTKLTVLG")
"5.66e-05"
>>> measured_value("#9104a-C3 (antibody, human IgG4 S228P, lambda, V domains shown, VH of #9104v-H13 with VL of #9104v-L23; full-length IgG, lambda) VH: EVQLLESGGGLVQPGGSLRLSCAASGFTFSNYYMSWVRQAPGKGLEWVSGIYYGSGIPYYANSVKGRFTISRDNSKNTLYLQMNSLRAEDTAVYYCARDTPGFDYWGQGTLVTVSS VL: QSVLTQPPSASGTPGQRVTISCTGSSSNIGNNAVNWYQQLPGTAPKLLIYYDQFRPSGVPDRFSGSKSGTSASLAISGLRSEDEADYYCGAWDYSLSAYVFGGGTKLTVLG")
"4.55e-05"

Memo: #9104a-B3 (antibody, human IgG4 S228P, lambda, V domains shown, VH of #9104v-H13 with VL of #9104v-L21; full-length IgG, lambda) VH: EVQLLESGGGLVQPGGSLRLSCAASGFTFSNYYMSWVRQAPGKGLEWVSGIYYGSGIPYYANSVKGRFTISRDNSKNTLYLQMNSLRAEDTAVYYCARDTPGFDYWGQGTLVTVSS VL: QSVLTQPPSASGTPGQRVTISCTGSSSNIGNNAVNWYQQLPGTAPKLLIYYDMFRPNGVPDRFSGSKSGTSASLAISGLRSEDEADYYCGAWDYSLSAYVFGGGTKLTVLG , reported koff: 8.23e-06

Provenance of the data: patent US20260201064A1
